tested on: 8505C; assay: Cytotoxicity against human 8505C cells assessed as cell survival after 96 hrs by sulforhodamine B assay; type: functional, cell-based
Assign EC50 to each entry below.
Field: numeric (µM). Do not append units.

Item: CC1(C)CC[C@]2(C(=O)NCCN3CCCC3)CC[C@]3(C)C(=CC[C@@H]4[C@@]5(C)CC[C@H](O)[C@@](C)(CO)[C@@H]5CC[C@]43C)[C@@H]2C1 | EC50: 1.8

Item: CC1(C)CC[C@]2(C(=O)NCCN3CCCCC3)CC[C@]3(C)C(=CC[C@@H]4[C@@]5(C)CC[C@H](O)[C@@](C)(CO)[C@@H]5CC[C@]43C)[C@@H]2C1 | EC50: 3.6

Item: CC1(C)CC[C@]2(C(=O)OCc3ccccc3Br)CC[C@]3(C)C(=CC[C@@H]4[C@@]5(C)CC[C@H](O)[C@@](C)(CO)[C@@H]5CC[C@]43C)[C@@H]2C1 | EC50: 7.8

Item: CC1(C)CC[C@]2(C(=O)OCc3cccc(Br)c3)CC[C@]3(C)C(=CC[C@@H]4[C@@]5(C)CC[C@H](O)[C@@](C)(CO)[C@@H]5CC[C@]43C)[C@@H]2C1 | EC50: 13.7

Item: CC1(C)CC[C@]2(C(=O)OCc3c(Cl)cccc3Cl)CC[C@]3(C)C(=CC[C@@H]4[C@@]5(C)CC[C@H](O)[C@@](C)(CO)[C@@H]5CC[C@]43C)[C@@H]2C1 | EC50: 9.4
